- PROTOCOL_NOTES: Half life in BALB/c mouse plasma at 50 mg/kg, iv by LC-MS analysis
- Format: ADME, organism-based
- Parameters: dose 50 mg/kg, route intravenous
MEASUREMENT_KIND: half-life (h)

These recorded examples may help you get a feel for the data.
| COMPOUND | half-life, h |
| --- | --- |
| CC[C@H](Nc1nc(NCc2cccnc2)c2ncn(C(C)C)c2n1)C(C)(C)O | 0.4 |
| CC[C@@H](Nc1nc(NCc2cccnc2)c2ncn(C(C)C)c2n1)C(C)(C)O | 0.6 |
| CC[C@H](CO)Nc1nc(NCc2ccccc2)c2ncn(C(C)C)c2n1 [SELICICLIB] | 1.4 |

(A) CC[C@H](Nc1nc(NCc2cccnc2)c2ncn(C(C)C)c2n1)[C@@H](C)O
(B) CC[C@@H](Nc1nc(NCc2cccnc2)c2ncn(C(C)C)c2n1)[C@H](C)O
Qu. Pick one, A or B : lowest reported half-life. Your answer should be the label of the entry you select.
Ans. B
(B: 1.7 h, A: 2.8 h)

====

- Test system: KM12
- PROTOCOL_NOTES: Growth inhibition of human KM12 cells after 96 hrs by sulforhodamine B assay
- Assay type: functional
- MEASUREMENT_CONDITIONS: KM12, 96 h
MEASUREMENT_KIND: GI50 (µM)
Give just the number in µM; leave the unit off.

Previously resolved entries follow.
| MOLECULE | MEASURED_VALUE |
| --- | --- |
| CC[C@@H](Nc1nc(NCc2ccccn2)c2ncn(C(C)C)c2n1)C(O)C(C)(C)C (mixture of isomers) | 45 |
| CC[C@H](Nc1nc(NCc2ccccn2)c2ncn(C(C)C)c2n1)C(C)(C)O | 38 |
| CC[C@@H](Nc1nc(NCc2cccnc2)c2ncn(C(C)C)c2n1)C(O)C(C)C (mixture of isomers) | 31 |

// below: GI50 requested for another molecule
Qu. For the molecule CCC(O)[C@@H](CC)Nc1nc(NCc2ccccc2)c2ncn(C(C)C)c2n1 (mixture of isomers) , give its reported GI50.
Ans. 23

====

- System: KM12
- PROTOCOL_NOTES: Growth inhibition of human KM12 cells after 96 hrs by sulforhodamine B assay
- Type: functional
- MEASUREMENT_CONDITIONS: KM12, 96 h
MEASUREMENT_KIND: GI50 (µM)
Numeric answer only, unit µM assumed.

Example entries and their recorded answers appear below.
| COMPOUND | GI50 (µM) |
| --- | --- |
| CC[C@H](CO)Nc1nc(NCc2cccnc2)c2ncn(C(C)C)c2n1 | 5.5 |
| CC[C@@H](Nc1nc(NCc2cccnc2)c2ncn(C(C)C)c2n1)C(O)C(C)(C)C (mixture of isomers) | 19 |
| CC[C@@H](Nc1nc(NCc2ccccc2)c2ncn(C(C)C)c2n1)C(C)(C)O | 21 |
| CC[C@@H](Nc1nc(NCc2cccnc2)c2ncn(C(C)C)c2n1)C(C)(C)O | 13 |
| CC[C@@H](Nc1nc(NCc2ccccc2)c2ncn(C(C)C)c2n1)C(O)C(C)C (mixture of isomers) | 27 |

Qu. Look up GI50 of CC[C@H](Nc1nc(NCc2ccccc2)c2ncn(C(C)C)c2n1)C(C)(C)O and report it.
Ans. 20

Qu. Specify reported GI50 for the compound shown: CCC(O)[C@@H](CC)Nc1nc(NCc2cccnc2)c2ncn(C(C)C)c2n1 (mixture of isomers)
Ans. 13.5

Qu. Specify reported GI50 for the compound shown: CC[C@H](Nc1nc(NCc2cccnc2)c2ncn(C(C)C)c2n1)C(C)(C)O
Ans. 5.4

Qu. Recall and state the measured GI50 for CC[C@H](Nc1nc(NCc2ccccn2)c2ncn(C(C)C)c2n1)C(O)C(C)(C)C (mixture of isomers) .
Ans. 36
